Experiment: Chemical stability in aqueous buffer solution at pH 6.8 after 6 hrs
Format: physicochemical
Settings: read-out: Stability
The entries below are paired with their reported remaining at 6 h.
Entry rule: numbers only, all in %.

Please report the recorded remaining at 6 h for CC[C@H](C)[C@@H](N)C(=O)N1C[C@@H](F)C[C@H]1C#N .
70

Please report the recorded remaining at 6 h for CC(C)(CO)NCC(=O)N1C[C@@H](F)C[C@H]1C#N .
96

Please report the recorded remaining at 6 h for N#Cc1ccc(NCCNCC(=O)N2C[C@@H](F)C[C@H]2C#N)nc1 .
86

###

Experiment: Drug level in Wistar rat plasma at 1 mg/kg, po after 6 hrs
Type: ADME, organism-based
Parameters: dose 1 mg/kg, route oral
Conditions: read-out: Drug uptake
recorded-metric: concentration at 6 h (ng/mL)
Entry rule: numbers only, all in ng/mL.

Known concentration at 6 h results, listed for orientation:
{"structure-smiles-string": "N#Cc1ccc(NCCNCC(=O)N2C[C@@H](F)C[C@H]2C#N)nc1.O=C(O)/C=C\\C(=O)O", "measurement-unit": "ng/mL", "experimental-value": 6}
{"structure-smiles-string": "CC[C@H](C)[C@@H](N)C(=O)N1C[C@@H](F)C[C@H]1C#N", "measurement-unit": "ng/mL", "experimental-value": 1}

Shifting focus to the molecule that follows.
Please report the recorded concentration at 6 h for CC(C)(CO)NCC(=O)N1C[C@@H](F)C[C@H]1C#N .
31
